- Assayed system: Cdk14/CycY (Homo sapiens (Human), UniProt O94921)
- Sequence (O94921 whole entry): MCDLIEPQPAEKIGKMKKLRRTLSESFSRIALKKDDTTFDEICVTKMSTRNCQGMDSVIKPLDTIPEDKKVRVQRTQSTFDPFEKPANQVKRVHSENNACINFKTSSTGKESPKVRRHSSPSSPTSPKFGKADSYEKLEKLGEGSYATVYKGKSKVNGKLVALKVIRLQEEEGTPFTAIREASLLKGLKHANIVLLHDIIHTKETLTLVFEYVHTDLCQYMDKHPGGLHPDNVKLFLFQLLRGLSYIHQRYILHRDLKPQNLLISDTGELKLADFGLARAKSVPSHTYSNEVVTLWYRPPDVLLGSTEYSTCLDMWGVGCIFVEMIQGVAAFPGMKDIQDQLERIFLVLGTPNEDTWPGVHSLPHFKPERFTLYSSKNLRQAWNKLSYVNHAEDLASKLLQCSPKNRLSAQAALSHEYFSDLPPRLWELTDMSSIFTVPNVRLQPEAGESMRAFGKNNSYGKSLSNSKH
- Sequence (Q8ND76 whole entry partner): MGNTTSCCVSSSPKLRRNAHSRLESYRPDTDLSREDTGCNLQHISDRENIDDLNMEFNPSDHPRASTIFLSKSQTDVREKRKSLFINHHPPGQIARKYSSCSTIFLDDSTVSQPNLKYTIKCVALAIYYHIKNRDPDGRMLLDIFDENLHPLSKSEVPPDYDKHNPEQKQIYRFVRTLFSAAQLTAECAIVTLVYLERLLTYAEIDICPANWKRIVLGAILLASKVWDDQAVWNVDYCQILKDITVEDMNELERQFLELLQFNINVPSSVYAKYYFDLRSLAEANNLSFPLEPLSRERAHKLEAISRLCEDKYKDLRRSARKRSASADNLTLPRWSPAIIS
- Test method notes: Lanthascreen Eu kinase binding assay for Cdk14/CycY with 30 minute pre-incubation
- Conditions used: 30 minute pre-incubation of kinase with compound; read-out: IC50 CDK14 binding by Lanthascreen
pIC50: −log10 of the molar value.
Label rule, in plain words: pIC50 of 7 and up is Condition met, under 7 is Condition not met.

Compound	Assayed system	Assigned class
COc1ccc(Cl)c(C(=O)Nc2c[nH]nc2C(=O)NC2CCN(S(=O)(=O)c3cccc(NC(=O)/C=C/CN(C)C)c3)CC2)c1Cl	Cdk14/CycY (Homo sapiens (Human), UniProt O94921)	Condition met
C=CC(=O)N1CCC[C@@H](NC(=O)c2n[nH]cc2NC(=O)c2c(Cl)cccc2Cl)C1	Cdk14/CycY (Homo sapiens (Human), UniProt O94921)	Condition not met
C=CC(=O)Nc1ccc(S(=O)(=O)N2CCC[C@@H](NC(=O)c3n[nH]cc3NC(=O)c3c(Cl)cccc3Cl)C2)cc1	Cdk14/CycY (Homo sapiens (Human), UniProt O94921)	Condition not met
CC(C)c1[nH]nc(C(=O)NC2CCN(S(=O)(=O)c3cccc(NC(=O)/C=C/CN(C)C)c3)CC2)c1NC(=O)c1c(Cl)cccc1Cl	Cdk14/CycY (Homo sapiens (Human), UniProt O94921)	Condition not met
CN(/C=C/C(=O)Nc1cccc(CN2CCC(NC(=O)c3n[nH]cc3NC(=O)c3c(Cl)cccc3Cl)CC2)c1)CCCCC1C[C@@H]2NC(=O)N[C@@H]2S1 (stereo partly drawn)	Cdk14/CycY (Homo sapiens (Human), UniProt O94921)	Condition met
C=CC(=O)Nc1cccc(S(=O)(=O)N2CCC(NC(=O)c3n[nH]c(C)c3NC(=O)c3c(Cl)cccc3Cl)CC2)c1	Cdk14/CycY (Homo sapiens (Human), UniProt O94921)	Condition not met
C=CC(=O)Nc1cccc(S(=O)(=O)N2CCC(NC(=O)c3c(NC(=O)c4c(Cl)cccc4Cl)cnn3C)CC2)c1	Cdk14/CycY (Homo sapiens (Human), UniProt O94921)	Condition not met
C=CC(=O)Nc1ccc(CN2CCC(NC(=O)c3n[nH]cc3NC(=O)c3c(Cl)cccc3Cl)CC2)cc1	Cdk14/CycY (Homo sapiens (Human), UniProt O94921)	Condition met
C=CC(=O)Nc1cccc(S(=O)(=O)N2CCC(NC(=O)c3n[nH]cc3NC(=O)c3ccccc3)CC2)c1	Cdk14/CycY (Homo sapiens (Human), UniProt O94921)	Condition not met
CN(C)C/C=C/C(=O)Nc1cccc(N2CC[C@H](NC(=O)c3n[nH]cc3NC(=O)c3c(Cl)cccc3Cl)C2)c1	Cdk14/CycY (Homo sapiens (Human), UniProt O94921)	Condition not met
C=CC(=O)Nc1cccc(CN2CCC(NC(=O)c3n[nH]cc3NC(=O)c3c(F)cc(F)cc3F)CC2)c1	Cdk14/CycY (Homo sapiens (Human), UniProt O94921)	Condition met
C=CC(=O)Nc1cccc(S(=O)(=O)N2CCC[C@@H](NC(=O)c3n[nH]cc3NC(=O)c3c(Cl)cccc3Cl)C2)c1	Cdk14/CycY (Homo sapiens (Human), UniProt O94921)	Condition not met
C=CC(=O)Nc1cccc(CN2CC[C@@H](NC(=O)c3n[nH]cc3NC(=O)c3c(Cl)cccc3Cl)C2)c1	Cdk14/CycY (Homo sapiens (Human), UniProt O94921)	Condition not met
C=CC(=O)Nc1ccc(CNC(=O)c2n[nH]cc2NC(=O)c2c(Cl)cccc2Cl)cc1	Cdk14/CycY (Homo sapiens (Human), UniProt O94921)	Condition not met
CN(C)C/C=C/C(=O)Nc1cccc(C(=O)Nc2ccc(NC(=O)c3n[nH]cc3NC(=O)c3c(Cl)cccc3Cl)cc2)c1	Cdk14/CycY (Homo sapiens (Human), UniProt O94921)	Condition met
COc1cccc(F)c1C(=O)Nc1c[nH]nc1C(=O)NC1CCN(S(=O)(=O)c2cccc(NC(=O)/C=C/CN(C)C)c2)CC1	Cdk14/CycY (Homo sapiens (Human), UniProt O94921)	Condition not met
CN(C)C/C=C/C(=O)Nc1cccc(S(=O)(=O)N2CCC(NC(=O)c3n[nH]cc3NC(=O)c3c(Cl)cc(Cl)cc3Cl)CC2)c1	Cdk14/CycY (Homo sapiens (Human), UniProt O94921)	Condition met
CN(C)C/C=C/C(=O)Nc1cccc(CN2CCC(NC(=O)c3n[nH]cc3NC(=O)c3c(F)cccc3F)CC2)c1	Cdk14/CycY (Homo sapiens (Human), UniProt O94921)	Condition not met
CN(C)C/C=C/C(=O)Nc1cccc(C(=O)Nc2cccc(NC(=O)c3n[nH]cc3NC(=O)c3c(Cl)cccc3Cl)c2)c1	Cdk14/CycY (Homo sapiens (Human), UniProt O94921)	Condition met
C=CC(=O)Nc1cccc(S(=O)(=O)N2CC[C@H](NC(=O)c3n[nH]cc3NC(=O)c3c(Cl)cccc3Cl)C2)c1	Cdk14/CycY (Homo sapiens (Human), UniProt O94921)	Condition not met
C=CC(=O)Nc1cccc(S(=O)(=O)N2CC[C@@H](NC(=O)c3n[nH]cc3NC(=O)c3c(Cl)cccc3Cl)C2)c1	Cdk14/CycY (Homo sapiens (Human), UniProt O94921)	Condition not met
